- Test system: Escherichia coli TOP10
- assayComment: shrunken log2 fold change of peptide-encoding DNA abundance (4.5 h post-induction vs induction); higher = less antimicrobial activity (less host growth inhibition)
- appliedConditions: time post-induction: 4.5 h; library: site-saturation at positions 5, 18, 19, 20
readout: shrunken log2 fold change

Solved cases below.
[[record]]
polymersequence = "RRIRVRPPRLPRPRPRPNLLPRP"
readout = "shrunken log2 fold change"
obsvalue = -0.22

[[record]]
polymersequence = "RRIRHRPPRLPRPRPRPFLAPRP"
readout = "shrunken log2 fold change"
obsvalue = -0.336

[[record]]
polymersequence = "RRIRQRPPRLPRPRPRPTLTPRP"
readout = "shrunken log2 fold change"
obsvalue = 0.0596

[[record]]
polymersequence = "RRIRKRPPRLPRPRPRPWDWPRP"
readout = "shrunken log2 fold change"
obsvalue = 0.504

[[record]]
polymersequence = "RRIRFRPPRLPRPRPRPKWGPRP"
readout = "shrunken log2 fold change"
obsvalue = 0.129


Request: shrunken log2 fold change, test system Escherichia coli TOP10, entry `RRIRSRPPRLPRPRPRPVINPRP`
-0.106

Next up: `RRIRWRPPRLPRPRPRPCMDPRP`
-0.18

Input `RRIRSRPPRLPRPRPRPAIAPRP`
-0.00626

Entry to check: `RRIRTRPPRLPRPRPRPETKPRP`
0.00321

Then what about the sequence `RRIRRRPPRLPRPRPRPRHRPRP` ?
0.178

Cool, now `RRIRDRPPRLPRPRPRPIPDPRP`
-0.0185

Further, for `RRIRKRPPRLPRPRPRPDSVPRP` ?
0.0996

What do we get for `RRIRIRPPRLPRPRPRPLDFPRP` ?
0.0619

What do we get for `RRIRQRPPRLPRPRPRPKPLPRP` ?
0.176

Okay, and `RRIRMRPPRLPRPRPRPYFWPRP` ?
-0.13

Cool, now `RRIRWRPPRLPRPRPRPLAMPRP`
0.0898

One more sequence: `RRIRRRPPRLPRPRPRPSFKPRP`
-0.117

Next up: `RRIRSRPPRLPRPRPRPHLNPRP`
-0.158

What do we get for `RRIRMRPPRLPRPRPRPPCGPRP` ?
0.788

And then `RRIRERPPRLPRPRPRPKCHPRP` , what is it?
-0.428

###

- Test system: Escherichia coli TOP10;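 also: peptides expressed intracellularly from a pBAD plasmid library in pooled LB shake-flask culture, induced with 0.3% L-arabinose, DNA abundance read by NGS, three biological replicates, DESeq2 with apeglm shrinkage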
- assayComment: shrunken log2 fold change of peptide-encoding DNA abundance (4.5 h post-induction vs induction); higher = less antimicrobial activity (less host growth inhibition)
- appliedConditions: time post-induction: 4.5 h; library: site-saturation at positions 5, 18, 19, 20
shrunken log2 fold change: recorded values
# print the numeric value only

[[record]]
polymersequence = "RRIRDRPPRLPRPRPRPDSAPRP"
experimentalsystem = "Escherichia coli TOP10"
obsvalue = -0.0433

[[record]]
polymersequence = "RRIRIRPPRLPRPRPRPFPLPRP"
experimentalsystem = "Escherichia coli TOP10"
obsvalue = -0.547

[[record]]
polymersequence = "RRIRMRPPRLPRPRPRPFIFPRP"
experimentalsystem = "Escherichia coli TOP10"
obsvalue = -0.233

[[record]]
polymersequence = "RRIRVRPPRLPRPRPRPRTRPRP"
experimentalsystem = "Escherichia coli TOP10"
obsvalue = 0.339

[[record]]
polymersequence = "RRIRARPPRLPRPRPRPEKPPRP"
experimentalsystem = "Escherichia coli TOP10"
obsvalue = 0.64

[[record]]
polymersequence = "RRIRERPPRLPRPRPRPTCKPRP"
experimentalsystem = "Escherichia coli TOP10"
obsvalue = -0.0222


Next sequence, shrunken log2 fold change to be filled in.
Fill in the blank: the reported shrunken log2 fold change of `RRIRTRPPRLPRPRPRPNNEPRP` is ____.
-0.581

These measurements were taken from the supplement of paper PMC9112550.
